# Test system: ACHN
# protocol: Cytotoxicity against ACHN cells
# Type: functional, cell-based
# condition_notes: Homo sapiens
Hi there, I'd appreciate the recorded log10 IC50 for every entry that follows.
Recall that a logarithmic scale is used here: each number is log10 of IC50 in µM.

Looking up CO/N=c1\[nH]cnc2c1[n+](C/C=C(\C)CC/C=C(\C)CCC=C(C)C)cn2C , I see its log10 IC50 listed as 1.61

For CC(C)=CCC/C(C)=C/CC/C(C)=C/CC/C(C)=C/Cn1cnc2c1c(=N)ncn2C the compound record lists log10 IC50 as 1.09

Sample CC(C)=CCC/C(C)=C/CC/C(C)=C/CC/C(C)=C/C[n+]1cn(C)c2nc[nH]/c(=N\OCc3ccccc3)c21 ; log10 IC50 observed: 1.32

log10 IC50 in this record for CO/N=c1\[nH]cnc2c1[n+](C/C=C(\C)CC/C=C(\C)CC/C=C(\C)CCC=C(C)C)cn2C(c1ccccc1)c1ccccc1 : 0.68

Memo: CO/N=c1\[nH]cnc2c1[n+](C/C=C(\C)CC/C=C(\C)CC/C=C(\C)CCC=C(C)C)cn2C(C)C , reported log10 IC50: 0.39

Field log10 IC50 (entry CO/N=c1\[nH]cnc2c1[n+](C/C=C(\C)CCCC(C)CCCC(C)CCCC(C)C)cn2C (stereo unspecified) ) reads 1.23

log10 IC50 reported for this compound CC(C)=CCC/C(C)=C/CC/C(C)=C/CC/C(C)=C/Cn1cnc2nc[nH]/c(=N\OCc3ccccc3)c21 : 1.44

Please fill in: log10 IC50 reported for CC(C)=CCC/C(C)=C/CC/C(C)=C/CC/C(C)=C/C[n+]1cn(C)c2nc[nH]/c(=N\OC(C)(C)C)c21 = 0.92

// log10 IC50 value for CO/N=c1\[nH]cnc2c1[n+](C/C=C(\C)CC/C=C(\C)CC/C=C(\C)CCC=C(C)C)cn2Cc1ccccc1 : 0.53

log10 IC50 for COc1cccc2c1C(=O)c1c(O)c3c(c(O)c1C2=O)C[C@@](O)(C(=O)CO)C[C@@H]3O[C@H]1C[C@H](N)[C@H](O)[C@H](C)O1 [DOXORUBICIN] is 1.15

Recorded log10 IC50 (compound CC(C)=CCC/C(C)=C/CC/C(C)=C/CC/C(C)=C/C[n+]1cn(C)c2ncnc(N)c21 ): 1.31

Lab book: log10 IC50 of CC(C)=CCC/C(C)=C\CC/C(C)=C/C[n+]1cn(C)c2nc[nH]/c(=N\OCc3ccccc3)c21 noted as 1.40

According to the records, this compound C=CCn1c[n+](C/C=C(\C)CC/C=C(\C)CC/C=C(\C)CCC=C(C)C)c2/c(=N/OC)[nH]cnc21 displays log10 IC50 of 0.66

Noted for CC(C)=CCC/C(C)=C/CC/C(C)=C/CC/C(C)=C/Cn1cnc2c1C(=N)N(C)CN2C : its log10 IC50 reads 0.71

Recorded result, CC(C)=CCC/C(C)=C/CC/C(C)=C/CC/C(C)=C/Cn1cnc2ncnc(Cl)c21 , log10 IC50: 0.83

* * *

# Tested on: Pichia kudriavzevii
# protocol: Antifungal activity against Candida krusei ATCC 6258
# Assay type: functional
measured_endpoint: MIC (µg/mL)
Numeric only. Scale: µg/mL

Lab note: molecule CO/N=c1\[nH]cnc2c1[n+](C/C=C(\C)CC/C=C(\C)CC/C=C(\C)CCC=C(C)C)cn2C tested on Pichia kudriavzevii; recorded MIC was 2

Test item CC(C)=CCC/C(C)=C/CC/C(C)=C/CC/C(C)=C/Cn1cnc2c1C(=N)N(C)CN2C ; Pichia kudriavzevii; reported MIC was 16

Reported MIC (Pichia kudriavzevii) for entry CO/N=c1\[nH]cnc2c1[n+](C/C=C(\C)CC/C=C(\C)CCC=C(C)C)cn2C is 8

* * *

# System: Staphylococcus aureus
# protocol: Antibacterial activity against Staphylococcus aureus ATCC 25923 after 20 hrs by broth microdilution method
# Format: functional
# condition_notes: ATCC 25923, 20 h
measured_endpoint: MIC

The compound listed as C/N=c1\ncn(C)c2ncn(C/C=C(\C)CC/C=C(\C)CC/C=C(\C)CCC=C(C)C)c12 has a reported MIC of 3 µg/mL

get_value(item= CO/N=c1\[nH]cnc2c1[n+](C/C=C(\C)CCC=C(C)C)cn2C , readout=MIC) returns > 32 µg/mL

Given item CC(C)=CCC/C(C)=C/CC/C(C)=C/CC/C(C)=C/Cn1cnc2nc[nH]/c(=N\OCc3ccccc3)c21 , the value recorded as its MIC is > 32 µg/mL

The recorded MIC for C=CCn1c[n+](C/C=C(\C)CC/C=C(\C)CC/C=C(\C)CCC=C(C)C)c2/c(=N/OC)[nH]cnc21 is > 32 µg/mL

Form: compound = CC(C)=CCC/C(C)=C/CC/C(C)=C/CC/C(C)=C/C[n+]1cn(C)c2nc[nH]/c(=N\OC(C)(C)C)c21 ; MIC = 24 µg/mL

For CO/N=c1\[nH]cnc2c1[n+](C/C=C(\C)CC/C=C(\C)CCC=C(C)C)cn2C the compound record lists MIC as 8 µg/mL

compound CC(C)=CCC/C(C)=C/CC/C(C)=C/CC/C(C)=C/Cn1cnc2ncnc(N)c21 , MIC observed: > 32 µg/mL

// recorded MIC for CO/N=c1\[nH]cnc2c1[n+](C/C=C(\C)CC/C=C(\C)CC/C=C(\C)CCC=C(C)C)cn2Cc1ccccc1 : > 32 µg/mL

Short answer for CC(C)=CCC/C(C)=C/CC/C(C)=C/CC/C(C)=C/Cn1cnc2ncnc(Cl)c21 : MIC was > 32 µg/mL

CO/N=c1\[nH]cnc2c1[n+](C/C=C(\C)CCCC(C)CCCC(C)CCCC(C)C)cn2C (stereo not drawn) has a reported MIC of > 32 µg/mL

Just so you know, measured MIC for CC(C)=CCC/C(C)=C/CC/C(C)=C/CC/C(C)=C/Cn1cnc2c1C(=N)N(C)CN2C came out at 16 µg/mL

The recorded MIC for Cn1cnc2c(N)[n+](Cc3ccccc3)cnc21.[Br-] is > 32 µg/mL

For this compound ( C/C(=C\C[n+]1cn(C)c2nc[nH]/c(=N\OCc3ccccc3)c21)CCCC(C)CCCC(C)CCCC(C)C (stereo not drawn) ), measured MIC is > 32 µg/mL

MIC reported for this compound CO/N=c1\[nH]cnc2c1[n+](C/C=C(\C)CC/C=C(/C)CCC=C(C)C)cn2C : 6 µg/mL

For CC(C)=CCC/C(C)=C\CC/C(C)=C/C[n+]1cn(C)c2nc[nH]/c(=N\OCc3ccccc3)c21 the compound record lists MIC as 8 µg/mL

MIC recorded for this compound, C/C(=C\C[n+]1cn(C)c2ncnc(N)c21)CCCC(C)CCCC(C)CCCC(C)C (stereo not drawn) , is 4 µg/mL

Notebook: CC(C)=CCC/C(C)=C/CC/C(C)=C/C[n+]1cn(C)c2ncnc(N)c21.[Cl-] , MIC read as > 32 µg/mL

CC(C)=CCC/C(C)=C/CC/C(C)=C/CC/C(C)=C/Cn1cnc2c1c(=N)ncn2C has a reported MIC of 4 µg/mL

Recorded result, CO/N=c1\[nH]cnc2c1[n+](C/C=C(\C)CC/C=C(\C)CC/C=C(\C)CCC=C(C)C)cn2C , MIC: 4 µg/mL

MIC reading for CC(C)=CCC/C(C)=C/CC/C(C)=C/CC/C(C)=C/C[n+]1cn(C)c2ncnc(N)c21 : 32 µg/mL

// recorded MIC for CC(C)=CCC/C(C)=C\CC/C(C)=C/C[n+]1cn(C)c2ncnc(N)c21.[Cl-] : 32 µg/mL

What the record says about CO/N=c1\[nH]cnc2ncn(C/C=C(\C)CC/C=C(\C)CC/C=C(\C)CCC=C(C)C)c12 : MIC is > 32 µg/mL

The recorded MIC for entry C=CC[n+]1cn(C)c2nc[nH]/c(=N\OC)c21 equals > 32 µg/mL

Form field MIC, entry CC(C)=CCC/C(C)=C/CC/C(C)=C/CC/C(C)=C/C[n+]1cn(C)c2nc[nH]/c(=N\OCc3ccccc3)c21 : 6 µg/mL

Item: CC(C)=CCC/C(C)=C/CC/C(C)=C/CC/C(C)=C/C[n+]1cn(C(c2ccccc2)c2ccccc2)c2nc[nH]/c(=N\OCc3ccccc3)c21 | MIC: 8 µg/mL

For record CO/N=c1\[nH]cnc2c1[n+](C/C=C(\C)CC/C=C(\C)CC/C=C(\C)CCC=C(C)C)cn2CCC#N the listed MIC is 4 µg/mL

Lab note: CC(C)=CCC/C(C)=C/CC/C(C)=C/CC/C(C)=C/C[n+]1cnc2c(ncn2C)c1N.[Br-] gave MIC of 8 µg/mL

Lookup result for Cn1c[n+](Cc2ccccc2)c2c(N)ncnc21.[Cl-] ; measured MIC: > 32 µg/mL

Please fill in: MIC reported for CO/N=c1\[nH]cnc2c1[n+](Cc1ccccc1)cn2C = > 32 µg/mL

Briefly, MIC measured for CO/N=c1\[nH]cnc2c1[n+](C/C=C(\C)CC/C=C(\C)CCC1CCCCC1)cn2C : 6 µg/mL

Recorded MIC (compound CC(C)=CCC/C(C)=C/CC/C(C)=C/CC/C(C)=C/C[n+]1cn(CCC#N)c2nc[nH]/c(=N\OCc3ccccc3)c21 ): > 32 µg/mL

get_value(item= CO/N=c1\[nH]cnc2c1[n+](C/C=C(\C)CC/C=C(\C)CC/C=C(\C)CCC=C(C)C)cn2C(c1ccccc1)c1ccccc1 , readout=MIC) returns 8 µg/mL

So for CC(C)=CCC/C(C)=C/CC/C(C)=C/CC/C(C)=C/Cn1cnc2c1C(=N)NCN2C , the logged MIC turned out to be 8 µg/mL
